- experimental_system: CDK3/cyclin E (Homo sapiens, UniProt Q00526)
- Sequence (Q00526 whole entry): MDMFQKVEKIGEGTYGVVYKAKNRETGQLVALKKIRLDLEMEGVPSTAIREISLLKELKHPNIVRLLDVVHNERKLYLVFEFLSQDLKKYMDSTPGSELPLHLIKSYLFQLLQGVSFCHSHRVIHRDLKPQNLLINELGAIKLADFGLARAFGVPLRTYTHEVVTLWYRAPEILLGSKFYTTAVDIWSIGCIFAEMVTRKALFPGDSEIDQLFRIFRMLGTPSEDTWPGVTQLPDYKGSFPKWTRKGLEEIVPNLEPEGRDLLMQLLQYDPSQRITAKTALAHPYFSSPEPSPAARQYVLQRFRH
- Sequence (P24864 whole entry partner): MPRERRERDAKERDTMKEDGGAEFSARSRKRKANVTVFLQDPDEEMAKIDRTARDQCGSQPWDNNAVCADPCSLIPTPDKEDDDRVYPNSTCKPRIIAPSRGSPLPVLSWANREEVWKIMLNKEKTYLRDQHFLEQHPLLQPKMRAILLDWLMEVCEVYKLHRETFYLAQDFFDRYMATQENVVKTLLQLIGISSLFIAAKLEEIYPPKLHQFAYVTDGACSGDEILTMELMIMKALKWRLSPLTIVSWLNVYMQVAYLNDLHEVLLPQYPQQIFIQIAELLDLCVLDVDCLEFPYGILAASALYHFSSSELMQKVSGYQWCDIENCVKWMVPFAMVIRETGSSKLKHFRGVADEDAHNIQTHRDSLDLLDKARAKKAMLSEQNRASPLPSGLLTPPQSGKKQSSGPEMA
- experimental_details: EMD Millipore (Eurofins) CDK panel
- measurement_parameters: read-out: CDK3/cyclin E IC50; EMD Millipore screening panel, N = 1
assay_readout: IC50 (µM)
Respond with the bare value in µM.

Q. Give the measured IC50 for CN(C)CCOc1ccc(Nc2cc(-n3cnc4ccccc43)ncn2)nc1
A. 3.5

---

- experimental_system: CDK6/cyclin D3 (Homo sapiens)
- Construct: purchased EMD Millipore screening panel (now Eurofins)
- Sequence (Q00534 whole entry): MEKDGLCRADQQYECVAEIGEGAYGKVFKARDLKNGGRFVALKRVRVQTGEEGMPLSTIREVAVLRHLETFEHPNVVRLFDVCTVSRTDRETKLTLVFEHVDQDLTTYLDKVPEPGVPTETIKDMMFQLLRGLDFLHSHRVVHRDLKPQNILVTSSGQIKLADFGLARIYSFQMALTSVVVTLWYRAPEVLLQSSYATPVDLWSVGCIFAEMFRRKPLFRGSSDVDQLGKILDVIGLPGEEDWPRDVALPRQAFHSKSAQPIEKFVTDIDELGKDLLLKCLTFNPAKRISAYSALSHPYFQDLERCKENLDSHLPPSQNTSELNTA
- Sequence (P30281 whole entry partner): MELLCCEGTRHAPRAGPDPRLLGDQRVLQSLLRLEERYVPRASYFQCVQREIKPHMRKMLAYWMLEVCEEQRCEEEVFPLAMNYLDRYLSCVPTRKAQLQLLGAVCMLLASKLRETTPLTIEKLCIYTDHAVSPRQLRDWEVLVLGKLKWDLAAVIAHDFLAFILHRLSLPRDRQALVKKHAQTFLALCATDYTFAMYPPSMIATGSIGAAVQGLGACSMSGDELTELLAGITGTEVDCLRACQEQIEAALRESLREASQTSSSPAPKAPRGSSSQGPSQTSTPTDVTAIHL
- experimental_details: EMD Millipore (Eurofins) CDK panel
- Format: biochemical
- measurement_parameters: EMD Millipore screening panel, N = 1
assay_readout: pIC50
Keep in mind that pIC50 stands for -log10 of concentration in molar terms.

Q. Consider the compound CN(C)CCOc1ccc(Nc2cc(-n3cnc4ccccc43)ncn2)nc1 [Compound 3] . State its measured pIC50.
A. 5.89
